Tested on: HCC-827 (Lung Adenocarcinoma)
Test: Bliss excess, mean over the matrix (fraction); higher = more synergy
# Bliss excess annotations

INSERT INTO assay_data (molecule, study_system, observed_value) VALUES
  ('Cc1c2c(nn1C)CSCc1cc(n(C)n1)CSc1cc(c3ccccc3c1)OCCCc1c(C(=O)O)n(C)c3c-2c(Cl)ccc13 [AZD5991] + CCN(CCO)CCCOc1ccc2c(Nc3cc(CC(=O)Nc4cccc(F)c4)[nH]n3)ncnc2c1 [AZD2811] (first compound max 1 µM, 7x7, partner max 1 µM)', 'HCC-827 (Lung Adenocarcinoma)', 0.0011);

Now for another entry.
Prompt line: Hello, please tell me recorded Bliss excess for this one: CC1(C)CCC(CN2CCN(c3ccc(C(=O)NS(=O)(=O)c4ccc(NCC5CCOCC5)c([N+](=O)[O-])c4)c(Oc4cnc5[nH]ccc5c4)c3)CC2)=C(c2ccc(Cl)cc2)C1 [Venetoclax] + C[C@@H]1COCCN1C2=NC(=NC(=C2)C3(CC3)[S@](=N)(=O)C)C4=C5C=CNC5=NC=C4 [AZD6738] (first compound max 1 µM, 7x7, partner max 10 µM)
Response line: -0.0418

###

Tested on: RCC10RGB (Kidney Carcinoma)
Assay: Bliss excess, mean over the matrix (fraction); higher = more synergy
Test readout: Bliss excess
Note: the reply should be a number with no unit written.

These recorded examples may help you get a feel for the data.
INSERT INTO assay_data (compound, study_system, observed_value) VALUES
  ('Cn1cnc2c(F)c(Nc3ccc(Br)cc3Cl)c(C(=O)NOCCO)cc21 [Selumetinib] + CCN(CCO)CCCOc1ccc2c(Nc3cc(CC(=O)Nc4cccc(F)c4)[nH]n3)ncnc2c1 [AZD2811] (first compound max 10 µM, 7x7, partner max 1 µM)', 'RCC10RGB (Kidney Carcinoma)', -0.0658),
  ('Cc1cc2ncnn2cc1Nc1ncc2c(n1)n(C1CCOCC1)c(=O)n2C [AZD7648] + O=C(c1cc(Cc2n[nH]c(=O)c3ccccc23)ccc1F)N1CCN(C(=O)C2CC2)CC1 [Olaparib] (first compound max 10 µM, 7x7, partner max 10 µM)', 'RCC10RGB (Kidney Carcinoma)', -0.0619),
  ('Cc1c2c(nn1C)CSCc1cc(n(C)n1)CSc1cc(c3ccccc3c1)OCCCc1c(C(=O)O)n(C)c3c-2c(Cl)ccc13 [AZD5991] + Cn1cnc2c(F)c(Nc3ccc(Br)cc3Cl)c(C(=O)NOCCO)cc21 [Selumetinib] (first compound max 1 µM, 7x7, partner max 3 µM)', 'RCC10RGB (Kidney Carcinoma)', 0.0528),
  ('CN(C)CCCOc1ccc(-c2ccc3ncc4c(c3c2)n(C2CCOCC2)c(=O)n4C)cn1 [AZD0156] + O=C(c1cc(Cc2n[nH]c(=O)c3ccccc23)ccc1F)N1CCN(C(=O)C2CC2)CC1 [Olaparib] (first compound max 3 µM, partner max 3 µM)', 'RCC10RGB (Kidney Carcinoma)', -0.0356);

Prompt line: Hello, please tell me recorded Bliss excess for this one: COc1cccc(OCCCN)c1-c1cc(Nc2cnc(C#N)cn2)n[nH]1 [Prexasertib] + CCc1c2c(nc3ccc(O)cc13)-c1cc3c(c(=O)n1C2)COC(=O)[C@]3(O)CC [SN-38] (first compound max 1 µM, 7x7, partner max 0.3 µM)
Response line: -0.081

###

Test system: HCC38 (Breast Carcinoma)
Assay: combination Emax (second highest fraction inhibited in the dose matrix, 72 h); higher = more inhibition; extreme values may be limits of the assay
Test readout: combination Emax
Note: the reply should be a number with no unit written.

These recorded examples may help you get a feel for the data.
INSERT INTO measurements (molecule, test_readout, observed_value) VALUES
  ('CC1(C)CCC(CN2CCN(c3ccc(C(=O)NS(=O)(=O)c4ccc(NCC5CCOCC5)c([N+](=O)[O-])c4)c(Oc4cnc5[nH]ccc5c4)c3)CC2)=C(c2ccc(Cl)cc2)C1 [Venetoclax] + CN(C)CCCOc1ccc(-c2ccc3ncc4c(c3c2)n(C2CCOCC2)c(=O)n4C)cn1 [AZD0156] (first compound max 1 µM, 7x7, partner max 1 µM)', 'combination Emax', 0.193),
  ('C[C@@H](Oc1cc(-c2cnn(C3CCNCC3)c2)cnc1N)c1c(Cl)ccc(F)c1Cl [Crizotinib] + Cn1cnc2c(F)c(Nc3ccc(Br)cc3Cl)c(C(=O)NOCCO)cc21 [Selumetinib] (first compound max 10 µM, 7x7, partner max 10 µM)', 'combination Emax', 0.0593),
  ('COc1cccc(OCCCN)c1-c1cc(Nc2cnc(C#N)cn2)n[nH]1 [Prexasertib] + C=CCn1c(=O)c2cnc(Nc3ccc(N4CCN(C)CC4)cc3)nc2n1-c1cccc(C(C)(C)O)n1 [AZD1775] (first compound max 1 µM, partner max 1 µM)', 'combination Emax', 0.799),
  ('Cc1cc2ncnn2cc1Nc1ncc2c(n1)n(C1CCOCC1)c(=O)n2C [AZD7648] + CN(C)CCCOc1ccc(-c2ccc3ncc4c(c3c2)n(C2CCOCC2)c(=O)n4C)cn1 [AZD0156] (first compound max 10 µM, 7x7, partner max 1 µM)', 'combination Emax', 0.233),
  ('Cn1cnc2c(F)c(Nc3ccc(Br)cc3Cl)c(C(=O)NOCCO)cc21 [Selumetinib] + C=CCn1c(=O)c2cnc(Nc3ccc(N4CCN(C)CC4)cc3)nc2n1-c1cccc(C(C)(C)O)n1 [AZD1775] (first compound max 10 µM, partner max 1 µM)', 'combination Emax', 0.377);

Prompt line: Hello, please tell me recorded combination Emax for this one: COc1cccc(OCCCN)c1-c1cc(Nc2cnc(C#N)cn2)n[nH]1 [Prexasertib] + C[C@@H]1COCCN1C2=NC(=NC(=C2)C3(CC3)[S@](=N)(=O)C)C4=C5C=CNC5=NC=C4 [AZD6738] (first compound max 1 µM, 7x7, partner max 10 µM)
Response line: 0.723

Prompt line: Hello, please tell me recorded combination Emax for this one: Cc1cc2ncnn2cc1Nc1ncc2c(n1)n(C1CCOCC1)c(=O)n2C [AZD7648] + COc1cc([C@@H]2c3cc4c(cc3[C@@H](O[C@@H]3O[C@@H]5CO[C@@H](C)O[C@H]5[C@H](O)[C@H]3O)[C@H]3COC(=O)[C@H]23)OCO4)cc(OC)c1O [Etoposide] (first compound max 10 µM, 7x7, partner max 10 µM)
Response line: 0.486

###

Test system: HCC38 (Breast Carcinoma)
Assay: Bliss excess, mean over the matrix (fraction); higher = more synergy
Test readout: Bliss excess
Note: the reply should be a number with no unit written.

These recorded examples may help you get a feel for the data.
INSERT INTO measurements (compound, study_system, observed_value) VALUES
  ('CN(C)CCCOc1ccc(-c2ccc3ncc4c(c3c2)n(C2CCOCC2)c(=O)n4C)cn1 [AZD0156] + C[C@@H]1COCCN1C2=NC(=NC(=C2)C3(CC3)[S@](=N)(=O)C)C4=C5C=CNC5=NC=C4 [AZD6738] (first compound max 1 µM, 7x7, partner max 10 µM)', 'HCC38 (Breast Carcinoma)', -0.0689),
  ('CC(=O)c1c(C)c2cnc(Nc3ccc(N4CCNCC4)cn3)nc2n(C2CCCC2)c1=O [Palbociclib] + CC1(C)CCC(CN2CCN(c3ccc(C(=O)NS(=O)(=O)c4ccc(NCC5CCOCC5)c([N+](=O)[O-])c4)c(Oc4cnc5[nH]ccc5c4)c3)CC2)=C(c2ccc(Cl)cc2)C1 [Venetoclax] (first compound max 10 µM, 7x7, partner max 1 µM)', 'HCC38 (Breast Carcinoma)', -0.0437);

Prompt line: Hello, please tell me recorded Bliss excess for this one: CC1(C)CCC(CN2CCN(c3ccc(C(=O)NS(=O)(=O)c4ccc(NCC5CCOCC5)c([N+](=O)[O-])c4)c(Oc4cnc5[nH]ccc5c4)c3)CC2)=C(c2ccc(Cl)cc2)C1 [Venetoclax] + COc1cc(Nc2ncc3c(n2)-c2ccc(Cl)cc2C(c2c(F)cccc2OC)=NC3)ccc1C(=O)O [Alisertib] (first compound max 1 µM, 7x7, partner max 10 µM)
Response line: -0.0184

###

System: D-392MG (Glioblastoma)
Experiment: Bliss excess, mean over the matrix (fraction); higher = more synergy
Test readout: Bliss excess
Note: the reply should be a number with no unit written.

INSERT INTO measurements (compound, test_readout, observed_value) VALUES
  ('COc1nnc2ccc(N3CCC(c4ccc(OCCN5CCN(C)C(=O)[C@H]5C)cc4)CC3)nn12 [AZD5153] + CCN(CCO)CCCOc1ccc2c(Nc3cc(CC(=O)Nc4cccc(F)c4)[nH]n3)ncnc2c1 [AZD2811] (first compound max 1 µM, 7x7, partner max 1 µM)', 'Bliss excess', -0.037);

Prompt line: Hello, please tell me recorded Bliss excess for this one: CCN(CCO)CCCOc1ccc2c(Nc3cc(CC(=O)Nc4cccc(F)c4)[nH]n3)ncnc2c1 [AZD2811] + O=C(c1cc(Cc2n[nH]c(=O)c3ccccc23)ccc1F)N1CCN(C(=O)C2CC2)CC1 [Olaparib] (first compound max 1 µM, 7x7, partner max 10 µM)
Response line: -0.0695

Prompt line: Hello, please tell me recorded Bliss excess for this one: CC1(C)CCC(CN2CCN(c3ccc(C(=O)NS(=O)(=O)c4ccc(NCC5CCOCC5)c([N+](=O)[O-])c4)c(Oc4cnc5[nH]ccc5c4)c3)CC2)=C(c2ccc(Cl)cc2)C1 [Venetoclax] + CN(C)CCCOc1ccc(-c2ccc3ncc4c(c3c2)n(C2CCOCC2)c(=O)n4C)cn1 [AZD0156] (first compound max 1 µM, 7x7, partner max 1 µM)
Response line: -0.0225

Prompt line: Hello, please tell me recorded Bliss excess for this one: CC1(C)CCC(CN2CCN(c3ccc(C(=O)NS(=O)(=O)c4ccc(NCC5CCOCC5)c([N+](=O)[O-])c4)c(Oc4cnc5[nH]ccc5c4)c3)CC2)=C(c2ccc(Cl)cc2)C1 [Venetoclax] + C[C@@H](Nc1cc(F)cc(F)c1)c1cc(C(=O)N(C)C)cc2c(=O)cc(N3CCOCC3)oc12 [AZD8186] (first compound max 1 µM, 7x7, partner max 3 µM)
Response line: -0.061

Prompt line: Hello, please tell me recorded Bliss excess for this one: C[C@@H]1COCCN1c1cc(C2([S@](C)(=N)=O)CC2)nc(-c2ccnc3[nH]ccc23)n1 [AZD6738] + Nc1ccn([C@@H]2O[C@H](CO)[C@@H](O)C2(F)F)c(=O)n1 [Gemcitabine] (first compound max 10 µM, 7x7, partner max 0.3 µM)
Response line: -0.0224

Prompt line: Hello, please tell me recorded Bliss excess for this one: COc1cccc2c1C(=O)c1c(O)c3c(c(O)c1C2=O)C[C@@](O)(C(=O)CO)C[C@@H]3O[C@H]1C[C@H](N)[C@H](O)[C@H](C)O1 [Doxorubicin] + Cc1cc2ncnn2cc1Nc1ncc2c(n1)n(C1CCOCC1)c(=O)n2C [AZD7648] (first compound max 1 µM, 7x7, partner max 10 µM)
Response line: 0.0458

Prompt line: Hello, please tell me recorded Bliss excess for this one: C[C@@H]1COCCN1c1cc(C2([S@](C)(=N)=O)CC2)nc(-c2ccnc3[nH]ccc23)n1 [AZD6738] + O=C(c1cc(Cc2n[nH]c(=O)c3ccccc23)ccc1F)N1CCN(C(=O)C2CC2)CC1 [Olaparib] (first compound max 10 µM, 7x7, partner max 10 µM)
Response line: -0.0067
